Data origin, for the record: ChEMBL document CHEMBL4765383

run.description: Selectivity ratio of IC50 for inhibition of human Cx43 to IC50 for inhibition of human Cx26
Some compounds, each annotated with its measured Selectivity ratio.
Reply with just the number.

input: Reported Selectivity ratio for NC[C@H]1O[C@H](O[C@H]2[C@H](O)[C@@H](O[C@H]3O[C@H](COc4ccc(Cl)cc4)[C@@H](O)[C@H](N)[C@H]3O)[C@H](N)C[C@@H]2N)[C@H](O)[C@@H](O)[C@@H]1O : what is it?
output: 1.93

input: Reported Selectivity ratio for CCCCCCCCCCCC(=O)NC[C@H]1O[C@H](O[C@H]2[C@H](O)[C@@H](O[C@H]3O[C@H](CO)[C@@H](O)[C@H](N)[C@H]3O)[C@H](N)C[C@@H]2N)[C@H](O)[C@@H](O)[C@@H]1O : what is it?
output: 6.88

input: Reported Selectivity ratio for N[C@@H]1[C@@H](O)[C@@H](O[C@@H]2[C@@H](O)[C@H](O[C@H]3O[C@H](CNC(=O)CCCc4cc5ccc6cccc7ccc(c4)c5c67)[C@@H](O)[C@H](O)[C@H]3O)[C@@H](N)C[C@H]2N)O[C@H](CO)[C@H]1O : what is it?
output: 2.16

input: Reported Selectivity ratio for COc1ccc(COC[C@H]2O[C@H](O[C@@H]3[C@@H](O)[C@H](O[C@H]4O[C@H](CN)[C@@H](O)[C@H](O)[C@H]4O)[C@@H](N)C[C@H]3N)[C@H](O)[C@@H](N)[C@@H]2OCc2ccc(OC)cc2)cc1 : what is it?
output: 3.17

input: Reported Selectivity ratio for NC[C@H]1O[C@H](O[C@H]2[C@H](O)[C@@H](O[C@H]3O[C@H](COCc4ccc(Cl)cc4)[C@@H](OCc4ccc(Cl)cc4)[C@H](N)[C@H]3O)[C@H](N)C[C@@H]2N)[C@H](O)[C@@H](O)[C@@H]1O : what is it?
output: 0.15

* * *

system: UniProt:P17302
run.description: Inhibition of human Cx43 expressed in kanamycin-resistant Escherichia coli LB2003 cells in medium containing […] K+ and 10 uM IPTG by measuring cell growth at 15 uM after 18 hrs by growth complementation assay
Design: scale not given: the % may be the effect or the level left
measured.quantity: Activity
# include the unit after the value

The cases that follow already have their Activity on record.
N[C@@H]1[C@@H](O)[C@@H](O[C@@H]2[C@@H](O)[C@H](O[C@H]3O[C@H](CNC(=O)c4cc(-c5ccccc5)nc5ccccc45)[C@@H](O)[C@H](O)[C@H]3O)[C@@H](N)C[C@H]2N)O[C@H](CO)[C@H]1O
25.5%
NC[C@H]1O[C@H](O[C@H]2[C@H](O)[C@@H](O[C@H]3O[C@H](COc4ccc([N+](=O)[O-])cc4)[C@@H](O)[C@H](N)[C@H]3O)[C@H](N)C[C@@H]2N)[C@H](O)[C@@H](O)[C@@H]1O
36.5%

Shift focus to the following entry.
input: Reported Activity for NC[C@H]1O[C@H](O[C@H]2[C@H](O)[C@@H](O[C@H]3O[C@H](COc4ccc(-c5ccccc5)cc4)[C@@H](O)[C@H](N)[C@H]3O)[C@H](N)C[C@@H]2N)[C@H](O)[C@@H](O)[C@@H]1O : what is it?
output: 27.3%

* * *

system: Gap junction alpha-1 protein (Homo sapiens)
run.description: Inhibition of human Cx43 expressed in kanamycin-resistant Escherichia coli LB2003 cells in medium containing […] K+ and 10 uM IPTG by measuring cell growth at 15 uM after 18 hrs by growth complementation assay
Set-up: scale not given: the % may be the effect or the level left
Some molecules, each annotated with its measured Activity.

NC[C@H]1O[C@H](O[C@H]2[C@H](O)[C@@H](O[C@H]3O[C@H](COc4ccc(-c5nc6ccccc6[nH]5)cc4)[C@@H](O)[C@H](N)[C@H]3O)[C@H](N)C[C@@H]2N)[C@H](O)[C@@H](O)[C@@H]1O
43.2%
N[C@@H]1[C@@H](O)[C@@H](O[C@@H]2[C@@H](O)[C@H](O[C@H]3O[C@H](CNC(=O)CCCc4cc5ccc6cccc7ccc(c4)c5c67)[C@@H](O)[C@H](O)[C@H]3O)[C@@H](N)C[C@H]2N)O[C@H](CO)[C@H]1O
52.2%
NC[C@H]1O[C@H](O[C@H]2[C@H](O)[C@@H](O[C@H]3O[C@H](CNC(=O)c4ccccc4-c4c5ccc(=O)cc-5oc5cc(O)ccc45)[C@@H](O)[C@H](N)[C@H]3O)[C@H](N)C[C@@H]2N)[C@H](O)[C@@H](O)[C@@H]1O
45.3%

Shift focus to the following entry.
input: Reported Activity for CCCCCCC(=O)NC[C@H]1O[C@H](O[C@H]2[C@H](O)[C@@H](O[C@H]3O[C@H](CO)[C@@H](O)[C@H](N)[C@H]3O)[C@H](N)C[C@@H]2N)[C@H](O)[C@@H](O)[C@@H]1O : what is it?
output: 18.5%

* * *

system: Gap junction beta-2 protein (Homo sapiens) (UniProt P29033)
run.description: Inhibition of human Cx26 expressed in kanamycin-resistant Escherichia coli LB2003 cells in medium containing […] K+ and 500 uM IPTG by measuring cell growth at 50 uM after 18 hrs by growth complementation assay
Parameters: scale not given: the % may be the effect or the level left
Decide using Activity alone. Strictly below 60%: Fulfilled. Equal to or above 60%: Not fulfilled.

input: Is Activity strictly under 60% for the entry NC[C@H]1O[C@H](O[C@H]2[C@H](O)[C@@H](O[C@H]3O[C@H](COc4ccc([N+](=O)[O-])cc4)[C@@H](O)[C@H](N)[C@H]3O)[C@H](N)C[C@@H]2N)[C@H](O)[C@@H](O)[C@@H]1O ?
output: Not fulfilled

input: Is Activity strictly under 60% for the entry Cc1ccc(OC[C@H]2O[C@H](O[C@@H]3[C@@H](O)[C@H](O[C@H]4O[C@H](CN)[C@@H](O)[C@H](O)[C@H]4O)[C@@H](N)C[C@H]3N)[C@H](O)[C@@H](N)[C@@H]2O)cc1 ?
output: Fulfilled

input: Is Activity strictly under 60% for the entry CCCCCCCCCCCC(=O)NC[C@H]1O[C@H](O[C@H]2[C@H](O)[C@@H](O[C@H]3O[C@H](CO)[C@@H](O)[C@H](N)[C@H]3O)[C@H](N)C[C@@H]2N)[C@H](O)[C@@H](O)[C@@H]1O ?
output: Fulfilled

input: Is Activity strictly under 60% for the entry NC[C@H]1O[C@H](O[C@H]2[C@H](O)[C@@H](O[C@H]3O[C@H](COc4ccc(-c5ccccc5)cc4)[C@@H](O)[C@H](N)[C@H]3O)[C@H](N)C[C@@H]2N)[C@H](O)[C@@H](O)[C@@H]1O ?
output: Not fulfilled

input: Is Activity strictly under 60% for the entry NC[C@H]1O[C@H](O[C@H]2[C@H](O)[C@@H](O[C@H]3O[C@H](COc4ccc(-c5nc6ccccc6[nH]5)cc4)[C@@H](O)[C@H](N)[C@H]3O)[C@H](N)C[C@@H]2N)[C@H](O)[C@@H](O)[C@@H]1O ?
output: Not fulfilled

* * *

system: Gap junction alpha-1 protein (Homo sapiens) (UniProt P17302)
Sequence (P17302 whole entry): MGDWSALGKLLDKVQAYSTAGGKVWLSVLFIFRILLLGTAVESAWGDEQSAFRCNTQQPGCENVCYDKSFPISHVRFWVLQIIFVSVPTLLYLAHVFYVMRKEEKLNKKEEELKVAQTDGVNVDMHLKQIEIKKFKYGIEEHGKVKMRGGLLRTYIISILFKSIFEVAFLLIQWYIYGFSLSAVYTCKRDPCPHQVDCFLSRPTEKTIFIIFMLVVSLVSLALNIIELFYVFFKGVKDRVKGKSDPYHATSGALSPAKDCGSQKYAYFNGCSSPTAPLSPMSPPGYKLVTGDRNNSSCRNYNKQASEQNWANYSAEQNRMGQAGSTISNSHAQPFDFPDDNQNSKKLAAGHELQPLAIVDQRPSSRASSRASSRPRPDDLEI
run.description: Inhibition of human Cx43 expressed in kanamycin-resistant Escherichia coli LB2003 cells in medium containing […] K+ and 10 uM IPTG by measuring cell growth at 15 uM after 18 hrs by growth complementation assay
Set-up: scale not given: the % may be the effect or the level left
Some compounds, each annotated with its measured Activity.
Write the answer as a number in %, unit excluded.

The cases that follow already have their Activity on record.
CCCCCCCCCCCC(=O)NC[C@H]1O[C@H](O[C@H]2[C@H](O)[C@@H](O[C@H]3O[C@H](CO)[C@@H](O)[C@H](N)[C@H]3O)[C@H](N)C[C@@H]2N)[C@H](O)[C@@H](O)[C@@H]1O
53.6
NC[C@H]1O[C@H](O[C@H]2[C@H](O)[C@@H](O[C@H]3O[C@H](COc4ccccc4)[C@@H](O)[C@H](N)[C@H]3O)[C@H](N)C[C@@H]2N)[C@H](O)[C@@H](O)[C@@H]1O
36
Cc1ccc(OC[C@H]2O[C@H](O[C@@H]3[C@@H](O)[C@H](O[C@H]4O[C@H](CN)[C@@H](O)[C@H](O)[C@H]4O)[C@@H](N)C[C@H]3N)[C@H](O)[C@@H](N)[C@@H]2O)cc1
63.8
COc1ccc2cc(C(=O)NC[C@H]3O[C@H](O[C@H]4[C@H](O)[C@@H](O[C@H]5O[C@H](CO)[C@@H](O)[C@H](N)[C@H]5O)[C@H](N)C[C@@H]4N)[C@H](O)[C@@H](O)[C@@H]3O)ccc2c1
42.1

Shift focus to the following entry.
input: Reported Activity for NC[C@H]1O[C@H](O[C@H]2[C@H](O)[C@@H](O[C@H]3O[C@H](COc4ccc(Cl)cc4)[C@@H](O)[C@H](N)[C@H]3O)[C@H](N)C[C@@H]2N)[C@H](O)[C@@H](O)[C@@H]1O : what is it?
output: 50.3
